Biological target: S1P3 (Homo sapiens, UniProt Q99500)
Sequence (Q99500 whole entry, species assumed): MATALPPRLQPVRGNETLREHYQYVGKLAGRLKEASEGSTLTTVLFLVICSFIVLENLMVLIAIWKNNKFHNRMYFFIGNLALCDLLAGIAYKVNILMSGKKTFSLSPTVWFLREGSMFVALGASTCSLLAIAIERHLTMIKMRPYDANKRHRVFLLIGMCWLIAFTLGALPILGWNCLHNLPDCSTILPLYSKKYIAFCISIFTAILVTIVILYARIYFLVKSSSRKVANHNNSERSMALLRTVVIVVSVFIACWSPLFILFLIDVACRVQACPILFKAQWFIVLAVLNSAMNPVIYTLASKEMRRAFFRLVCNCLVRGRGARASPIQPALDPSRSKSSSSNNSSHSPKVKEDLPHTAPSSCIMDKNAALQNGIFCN
Assay: Receptor binding assay, [33P]sphingosine 1-phosphate competition, S1P3
Settings: 96 well-plate; read-out: S1P3 binding IC50 (M) (96 well-plate)
Counter-ions that a name gives are not always drawn.
measured metric: IC50 (M)

P. COCc1cc(-c2nc(-c3cnc(NCCCC(=O)O)c(Cl)c3)no2)ccc1-c1ccccc1F [Example 54, hydrochloride salt]
Q. Cc1ccccc1-c1ccc(-c2nc(-c3cnc(NCCC(=O)O)c(C)c3)no2)cc1C(F)(F)F [Example 59, hydrochloride salt]
R. COCc1cc(-c2nc(-c3ccnc(CNCC(=O)O)c3)no2)ccc1-c1ccccc1C
Arrange the items listed above so that IC50 rises from first to last. Answer by naming the labels in the order asked.
R, P, Q

1. COCc1cc(-c2nc(-c3cnc(NCCCC(=O)O)c(Cl)c3)no2)ccc1-c1ccccc1C [Example 56, hydrochloride salt]
2. COCc1cc(-c2nc(-c3ccc(N)nc3)no2)ccc1-c1ccccc1Cl
Kindly compare 1 with 2 and tell me which has the lower IC50 figure. Refer to your chosen entry by its label in the reply.
1

P. CCc1ccccc1-c1ccc(-c2nc(-c3cnc(N)c(Cl)c3)no2)cc1COC
Q. COCc1cc(-c2nc(-c3cnc(NCCC(=O)O)c(Cl)c3)no2)ccc1-c1ccccc1Cl [Example 50, hydrochloride salt]
R. COCc1cc(-c2nc(-c3cnc(NCCC(=O)O)c(Cl)c3)no2)ccc1-c1ccccc1C [Example 37, hydrochloride salt]
# rank by IC50, ascending (min first) Answer by naming the labels in the order asked.
R, Q, P

1. CCOc1cc(-c2nc(-c3cnc(NCCC(=O)O)c(Cl)c3)no2)ccc1-c1ccccc1C(F)(F)F [Example 71, hydrochloride salt]
2. COCc1cc(-c2nc(-c3ccnc(CN(C)CC(=O)O)c3)no2)ccc1-c1ccccc1C
3. COCc1cc(-c2nc(-c3cnc(NCCC(=O)O)c(C)c3)no2)ccc1-c1ccccc1C [Example 58, hydrochloride salt]
Given 3 compounds, produce a descending ranking by IC50. Answer by naming the labels in the order asked.
3, 1, 2
(3: 9.3e-06 M, 1: 5.75e-06 M, 2: 8.55e-07 M)

I. COCc1cc(-c2nc(-c3cnc(NCCCC(=O)O)c(C)c3)no2)ccc1-c1ccccc1C [Example 57, hydrochloride salt]
II. COCc1cc(-c2nc(-c3cnc(NCCC(=O)O)c(C)c3)no2)ccc1-c1ccccc1F [Example 53, hydrochloride salt]
Kindly compare I with II and tell me which has the lower IC50 figure. Refer to your chosen entry by its label in the reply.
II
(II: 3.1e-06 M, I: 7.44e-06 M)

----------
Target: UniProt:P21453
Sequence (P21453 with tags, fused parts or gaps): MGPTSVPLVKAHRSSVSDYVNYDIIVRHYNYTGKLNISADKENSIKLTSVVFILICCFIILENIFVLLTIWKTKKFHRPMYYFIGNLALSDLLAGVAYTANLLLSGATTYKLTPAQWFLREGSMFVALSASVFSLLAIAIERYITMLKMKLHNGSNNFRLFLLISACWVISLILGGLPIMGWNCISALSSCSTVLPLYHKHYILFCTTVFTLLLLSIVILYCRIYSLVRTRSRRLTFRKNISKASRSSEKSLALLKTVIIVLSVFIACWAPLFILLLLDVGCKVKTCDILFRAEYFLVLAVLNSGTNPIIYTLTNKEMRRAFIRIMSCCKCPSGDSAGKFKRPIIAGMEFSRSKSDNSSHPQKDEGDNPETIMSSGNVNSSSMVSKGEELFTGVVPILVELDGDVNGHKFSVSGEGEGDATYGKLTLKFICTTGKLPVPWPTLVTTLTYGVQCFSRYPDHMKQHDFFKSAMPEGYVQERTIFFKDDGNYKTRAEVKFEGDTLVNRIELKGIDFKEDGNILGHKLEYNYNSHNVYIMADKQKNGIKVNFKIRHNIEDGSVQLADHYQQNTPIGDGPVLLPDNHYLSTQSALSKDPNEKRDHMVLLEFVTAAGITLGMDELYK
Experiment: Internalization of S1P1 in S1P1-U2OS cells by cell imaging analysis
Conditions: 1 hour incubation, 384-well
pEC50: −log10 of the molar value. Counter-ions that a name gives are not always drawn.
measured metric: pEC50

Example entries begin here.
COCc1cc(-c2nc(-c3cnc(Cl)c(F)c3)no2)ccc1-c1ccccc1C    7.71
Cc1ccccc1-c1ccc(-c2nc(-c3ccnc(CN(C)CC(=O)O)c3)no2)cc1C(F)(F)F    7.82
COCc1cc(-c2nc(-c3cnc(NCCC(=O)O)c(Cl)c3)no2)ccc1-c1ccccc1C [Example 37, hydrochloride salt]    7.70
COCc1cc(-c2nc(-c3ccc(NCCCCO)nc3)no2)ccc1-c1ccccc1C [Example 51, hydrochloride salt]    7.07
COCc1cc(-c2nc(-c3ccnc(NCC(=O)O)c3)no2)ccc1-c1ccccc1C [Example 11, hydrochloride salt]    6.61
COCc1cc(-c2nc(-c3ccc(NCCO)nc3)no2)ccc1-c1ccccc1Cl    7.21
COCc1cc(-c2nc(-c3cnc(NCCO)c(Cl)c3)no2)ccc1-c1ccccc1F    7.04
COCCCNc1ncc(-c2noc(-c3ccc(-c4ccccc4C)c(COC)c3)n2)cc1Cl    6.89
Cc1ccccc1-c1ccc(-c2nc(-c3cnc(NCCC(=O)O)c(Cl)c3)no2)cc1C(F)(F)F [Example 61, hydrochloride salt]    6.70
COCc1cc(-c2nc(-c3cnc(NCCCC(=O)O)c(C)c3)no2)ccc1-c1ccccc1F [Example 55, hydrochloride salt]    7.19

I. COCc1cc(-c2nc(-c3ccc(CN(C)CC(=O)O)nc3)no2)ccc1-c1ccccc1C
II. Cc1ccccc1-c1ccc(-c2nc(-c3cnc(NCCC(=O)O)c(C)c3)no2)cc1C(F)(F)F [Example 59, hydrochloride salt]
III. Cc1cc(-c2nc(-c3cnc(NCCC(=O)O)c(Cl)c3)no2)ccc1-c1ccccc1C(F)(F)F [Example 70, hydrochloride salt]
IV. COCc1cc(-c2nc(-c3cnc(N)c(Cl)c3)no2)ccc1-c1ccccc1Cl
V. COCc1cc(-c2nc(-c3cnc(NCCCO)c(Cl)c3)no2)ccc1-c1ccccc1C
# rank by pEC50, ascending (min first) Answer by naming the labels in the order asked.
II, III, V, IV, I
(II: 6.81, III: 7.03, V: 7.33, IV: 7.57, I: 8.02)

A. COCc1cc(-c2nc(-c3cnc(N)nc3)no2)ccc1-c1ccccc1C
B. COCc1cc(-c2nc(-c3ccc(NCCCO)nc3)no2)ccc1-c1ccccc1C
Kindly compare A with B and tell me which has the lower pEC50 figure. Refer to your chosen entry by its label in the reply.
A
